# Test system: tumor cells
# Protocol: Mitochondrial membrane potential, JC-1 (read-out 48 h)
# Format: cell-based
# Measurement Setup: Homo sapiens; HeLa cells, JC-1, 48 h; read-out: Mitochondrial membrane potential (read-out 48 h) HeLa
EC50 by entry:

Answered cases to consult:
C=CCOc1ccc(OC)cc1C(=O)c1oc2ccc(Cl)cc2c1N [Example 4] | 10 to 100 nM
CCOc1ccc(F)cc1C(=O)c1oc2cnc(C)cc2c1N [Example 31] | 100 to 1000 nM
CCOc1ccc(F)cc1C(=O)c1sc2ncc(C#N)cc2c1N [Example 120] | > 1000 nM
CCOc1ccccc1C(=O)c1oc2c(C)cccc2c1N [Example 5] | > 1000 nM
CCOc1ccccc1C(=O)c1oc2ccc(Cl)cc2c1N [Example 2] | 10 to 100 nM

[Q] Request body: readout EC50, system tumor cells, query CCOc1ccc([N+](=O)[O-])cc1C(=O)c1oc2ccc(Cl)cc2c1N [Example 3] . Return the value.
[A] < 10 nM

[Q] Can you check CCOc1ccccc1C(=O)c1oc2cnc(C)cc2c1N [Example 30] next?
[A] 100 to 1000 nM

[Q] Now consider COc1ccc2oc(C(=O)c3cccnc3N3CCOCC3)cc2c1 [Example 39] and answer again.
[A] 10 to 100 nM

====

# Protocol: MTS proliferation assay (72 h read-out)
# Type: cell-based
# Measurement Setup: MRC5 cells
pIC50: −log10 of the molar value.
Measured Endpoint: pIC50

Use these answered entries as a reference point.
CCOc1ccc2oc(C(=O)c3cc(F)ccc3N3CCOCC3)cc2c1 | 7.00 to 8.00
COc1ccc2oc(C(=O)c3cccnc3N3CCCCC3)cc2c1 [Example 91] | > 8.00
CCOc1ccc(F)cc1C(=O)c1cc2cc(CN(CC)CC)ccc2o1 | < 6.00
CCOc1ccc(F)cc1C(=O)c1oc2ccc(OC)cc2c1N | > 8.00

[Q] Any idea what its pIC50 is? The molecule is CC1CCCN(c2ccc(F)cc2C(=O)c2oc3ccc(Cl)cc3c2N)C1 (centres unmarked)
[A] 6.00 to 7.00

====

# Protocol: MTS proliferation assay (72 h read-out)
# Assay type: cell-based
# Measurement Setup: MRC5 cells
# Experimental: B) MTS Proliferation Assay The assay is performed in 96 well tissue culture plates. The cells (range: 1.5*10^3-10^4) are seeded out in 80 μl complete medium 24 h prior to compound treatment. The test compounds are added in 20 μl complete medium containing max 5% DMSO. The final compound concentrations in the assays are in the range of 0.001 μM-10 μM. […] Subsequently, the plates are shortly shaked and absorption measured with a microplate-reader at 492 nm. […]
pIC50: −log10 of the molar value.
Measured Endpoint: pIC50

For orientation, consider the following solved cases.
CN(C)c1ncccc1C(=O)c1oc2ccc(Cl)cc2c1N [Example 77] | < 6.00
Nc1c(C(=O)c2cc(F)ccc2N2CC=CCC2)oc2ccc(Cl)cc12 [Example 103] | 7.00 to 8.00

[Q] Which pIC50 reading was recorded for the compound CCOc1ccc(F)cc1C(=O)c1cc2cc(OCCOC)ccc2o1 [Example 70] ?
[A] 6.00 to 7.00

[Q] Request: CCOc1ccc(F)cc1C(=O)c1oc2ccc(OC)cc2c1NC(=O)OC [Example 49]
[A] 7.00 to 8.00

[Q] Further, for COCCOc1ccccc1C(=O)c1oc2ccc(Cl)cc2c1N [Example 6] ?
[A] < 6.00

[Q] CCOc1ccccc1C(=O)c1oc2ccc([N+](=O)[O-])cc2c1N [Example 59] , same question.
[A] 6.00 to 7.00

[Q] Try the compound CN(C)CCOc1ccccc1C(=O)c1oc2ccc(Cl)cc2c1N [Example 11]
[A] < 6.00

[Q] Do the same for Nc1c(C(=O)c2ccccc2OCC(F)(F)F)oc2ccc(Cl)cc12 [Example 61] please
[A] 7.00 to 8.00

[Q] Moving on to CCOc1ccc(F)cc1C(=O)c1oc2ccc(OC)cc2c1NC(=O)COC [Example 58]
[A] 7.00 to 8.00

====

IC50 overview
# Protocol: MTS proliferation assay (72 h read-out)
# Format: cell-based
# Measurement Setup: MRC5 cells

C#CCOc1ccc(OC)cc1C(=O)c1oc2ccc(Cl)cc2c1N [Example 13] | 0.1 to 1 µM
CCOc1ccc(F)cc1C(=O)c1oc2ccc(OC)cc2c1NS(=O)(=O)N(C)C [Example 50] | > 1 µM
CC1CN(c2ncccc2C(=O)c2oc3ccc(Cl)cc3c2N)CC(C)O1 (stereo not drawn) [Example 83] | 0.01 to 0.1 µM
COc1ccc2oc(C(=O)c3cc(F)ccc3N3CCCCC3)cc2c1 [Example 95] | 0.01 to 0.1 µM
COc1ccc(OC)c(C(=O)c2oc3ccc(Cl)cc3c2O)c1 [Ref C, reference compound] | > 1 µM

Now, please, on to the next molecule.
[Q] Can you share its IC50? I mean this molecule: O=C(c1cc2cc(O)ccc2o1)c1cc(F)ccc1N1CCOCC1 [Example 107]
[A] 0.01 to 0.1 µM

====

Overview of reported IC50 across a group of molecules:
# Protocol: MTS proliferation assay (72 h read-out)
# Assay type: cell-based
# Measurement Setup: MRC5 cells

CCOc1ccccc1C(=O)c1cc2cc(OC)ccc2o1 | < 0.01 µM
CN1CCN(c2ccc(F)cc2C(=O)c2oc3ccc(Cl)cc3c2N)CC1 | > 1 µM
Nc1c(C(=O)c2cc(F)ccc2N2CCOCC2)oc2ccc(Cl)cc12 | 0.01 to 0.1 µM

[Q] Which measured IC50 value corresponds to COc1ccc(OC)c(C(=O)COc2ccc(Cl)cc2C#N)c1 [Ref D, reference compound] ?
[A] > 1 µM

[Q] Entry CCOc1ccc(F)cc1C(=O)c1oc2ccccc2c1N please
[A] 0.01 to 0.1 µM

====

Measured Endpoint: melting point

These recorded examples may help you get a feel for the data.
CCOc1ccccc1C(=O)c1sc2ncc(N)cc2c1N [Example 117] | 116 °C
CCOc1ccc(N)cc1C(=O)c1oc2ccc(Cl)cc2c1N [Example 7] | 144 to 146 °C
CCOc1ccc(OC)cc1C(=O)c1oc2ccc(Cl)cc2c1N [Example 12] | 124 to 125 °C
CCOc1ccc(C)cc1C(=O)COc1ccc(Cl)cc1C#N [Example 144] | 144 to 146 °C
CCOc1ccc(F)cc1C(=O)c1oc2nc(C)ccc2c1N [Example 29] | 152 to 156 °C
CC(C)Oc1ccccc1C(=O)c1oc2ccc(Cl)cc2c1N [Example 9] | 110 °C
CCOc1ccc(NC(C)=O)cc1C(=O)c1oc2ccc(Cl)cc2c1N [Example 21] | 110 to 112 °C
CCOc1ccc(C(=O)OC)cc1C(=O)c1oc2ccc(Cl)cc2c1N [Example 20] | 136 to 138 °C

[Q] Returns the measured melting point for the input compound. Input: CCOc1ccccc1C(=O)COc1nc(C)ccc1C#N [Example 145]
[A] 156 to 158 °C

[Q] Now the same for CCOc1ccccc1C(=O)c1oc2nc(C)ccc2c1N [Example 28]
[A] 156 to 158 °C

====

# Protocol: MTS proliferation assay (72 h read-out)
# Assay type: cell-based
# Measurement Setup: MRC5 cells
pIC50: −log10 of the molar value.
Entries and their measured pIC50 follow.

Recorded pIC50, per entry:
COc1ccc2oc(C(=O)c3cccnc3N3CCCC(C)C3)cc2c1 (stereo not shown) | 7.00 to 8.00
COc1ccc2oc(C(=O)c3cc(F)ccc3-n3ccnc3)cc2c1 | < 6.00
CCOc1ccc(C(=O)O)cc1C(=O)c1oc2ccc(Cl)cc2c1N | < 6.00
CCOc1ccccc1C(=O)c1oc2ccc(F)cc2c1N | < 6.00
CCOc1ccccc1C(=O)c1oc2ccc(OC)cc2c1N | 7.00 to 8.00

[Q] State the recorded pIC50 for this entry: CCOc1ccc(F)cc1C(=O)c1cc2cc(OC(C)C)ccc2o1
[A] 7.00 to 8.00

[Q] Item: Nc1c(C(=O)c2cc(F)ccc2N2CCCCC2)oc2ccc(Cl)cc12 [Example 100]
[A] 7.00 to 8.00

====

This listing pairs molecules with measured EC50.
# System: tumor cells
# Protocol: Mitochondrial membrane potential, JC-1 (read-out 48 h)
# Format: cell-based
# Measurement Setup: Jily cells, JC-1, 48 h; read-out: Mitochondrial membrane potential (read-out 48 h) Jily

Example entries begin here.
Nc1c(C(=O)c2cc(F)ccc2N2CC=CCC2)sc2ncccc12 [Example 126] | 100 to 1000 nM
CN(C)c1ncccc1C(=O)c1oc2ccc(Cl)cc2c1N [Example 77] | 100 to 1000 nM
CCN(C)c1ncccc1C(=O)c1oc2ccc(Cl)cc2c1N [Example 80] | 100 to 1000 nM

[Q] State the recorded EC50 for this entry: Nc1c(C(=O)c2ccccc2OCc2ccccc2)oc2ccc(Cl)cc12 [Example 1]
[A] > 1000 nM

// data source = patent US8486996B2
